Measured melting point values are reported for all entries that follow.

| Molecule | melting point |
| --- | --- |
| Cc1c(C)c2c(c(C)c1O)C(O)CC(C)(COc1ccc(CC3SC(=O)NC3=O)cc1)O2 (stereo not drawn) | 102 to 118 °C |
| O=C1CC2(C(=O)N1)C(=O)N(Cc1ccc(Br)cc1)c1ccccc12 (stereo not drawn) | 218 to 220 °C |
| COc1ccc(CC(=O)NC(NC(=NC#N)Nc2ccccc2C)C(C)(C)C)cc1OC (stereo not drawn) | 156 to 157 °C |

---

| Compound | melting point |
| --- | --- |
| COc1ccc([C@@H]2Sc3cc(Cl)ccc3N(CCCN3CCN(c4ccccc4)CC3)C(=O)[C@@H]2O)cc1 (relative stereo) | 70 to 71 °C |
| Cc1cc(CNc2cccc3c2CN(C2CCC(=O)NC2=O)C3=O)oc1C (stereo not given) | 237 to 239 °C |
| CCC1CC2C3CCC(C(C)CC(C)C(=O)O)C3(C)CCC2C2(C)CCC(O)CC12 (stereo not given) | 138 °C |
| CC(=O)OCc1c(Br)cccc1[N+](=O)[O-] | 36 to 37 °C |
| CC(=O)N[C@@H](Cc1ccc(-c2cc3ccccc3c3ccccc23)cc1)C(=O)O | 128 to 132 °C |
| CC1(C)OCC(COc2ccc(Br)cc2C23CC4CC(CC(C4)C2)C3)O1 (stereo not given) | 91 °C |
| NC(Cc1ccccc1)c1ccc(Cl)cc1 (stereo not given) | 35 to 36 °C |
| O=C(NCc1ccccc1)c1ccnc(N2CCC(c3ccccc3)CC2=O)c1 (stereo not given) | 55 to 60 °C |
| COc1ccc(N2CCN(c3ccc([N+](=O)[O-])cc3)CC2)nc1 | 160 °C |
| O=C(NO)c1ccc2c(c1)CN(C(=O)OCc1cccnc1)C2 | 196 to 199 °C |
| COc1ccccc1C(=O)c1cccc(NC(=O)c2ccn3c2CSC3c2cccnc2)c1 (stereo not given) | 184 °C |
| O=C1NC(=O)C(=Cc2ccc(OCCN(Cc3ccccc3)c3nc4ccccc4s3)cc2)S1 | 185 to 188 °C |
| C=C(C)C(=O)[C@@H]1CCCC[C@H]1C(=O)OC(c1ccccc1)c1ccccc1 (relative stereo) | 90 to 95 °C |
| CCOC(=O)C(c1c(F)cc(C#N)cc1F)c1cc(C)c(C(=O)c2ccc(Cl)cc2)n1C (stereo not given) | 155 to 156 °C |
| Cc1cnc2n1-c1sc(CCCO)cc1C(c1ccccc1Cl)=NC2 | 131 to 134 °C |
